Values were extracted from PubChem BioAssay (NCI).

- Test system: CCRF-CEM leukemia
- assay remarks: NCI tumour cell line growth inhibition, 48 h
outcome measure: GI50

As a guide, the following entries are already answered.
{"columns": ["molecule", "assayed system", "GI50"],
 "data": [
  ["Cn1cc(C2=C(c3cn(-c4ccccc4)c4ccccc34)C(=O)NC2=O)c2ccccc21", "CCRF-CEM leukemia", "15.2 µM"],
  ["C=CC(=O)N1C[C@@H]2CCOc3c(Cl)c(-c4c(O)cccc4F)c(F)c4ncnc(c34)N2C[C@H]1C", "CCRF-CEM leukemia", "11.5 µM"],
  ["C=C1C(=O)O[C@H]2[C@H](OC(C)=O)[C@@H](C)CCCC3(C)OC3CCC3(CO3)[C@H](O)C[C@@H]12 (stereo not given in full)", "CCRF-CEM leukemia", "2.44 µM"],
  ["Cc1ccc(C=C2C(Cl)=C(Cl)C(Cl)=C2Cl)cc1", "CCRF-CEM leukemia", "0.167 µM"]
]}

Could you now consider this next molecule?
// lookup GI50 for "C#Cc1cccc(Nc2ncnc3ccc(OCCCCNCCS(C)(=O)=O)cc23)c1"
7.65 µM

---

- System: HT29 colon
- assay remarks: NCI tumour cell line growth inhibition, 48 h
outcome measure: TGI

As a guide, the following entries are already answered.
{"columns": ["compound", "assayed system", "TGI"],
 "data": [
  ["COc1ccccc1C(=O)NO", "HT29 colon", "> 100 µM"],
  ["CC(=O)c1cc2c(s1)C(=O)c1sccc1C2=O", "HT29 colon", "0.426 µM"],
  ["Cc1[nH]c2ccccc2c1CC/C(=N\\Nc1ccccc1)c1ccccc1", "HT29 colon", "> 100 µM"],
  ["S=c1c2[nH]cnc2ncn1CCSC1=NC=NC2=NC=NC21 (centres undefined)", "HT29 colon", "> 100 µM"],
  ["C=CCC1(Sc2ccccn2)Sc2ccc3ccccc3c2-c2c(ccc3ccccc23)S1", "HT29 colon", "> 100 µM"]
]}

// lookup TGI for CCOC(=O)C1(C/C=C/CCl)CCCC1=O (centres undefined)
68.4 µM

// lookup TGI for N#CC1=C(N)NC(=S)NC12Nc1ccccc1S2 (centres undefined)
> 100 µM

// lookup TGI for "COc1ccc(C(=O)c2c3cc(OC)c(OC)c(OC)c3cc[n+]2C)cc1"
> 100 µM

// lookup TGI for "CSc1nn(C)cc2ncnc1-2"
> 100 µM

// lookup TGI for "O=C1C=CC(=C(c2ccccc2)c2ccc(O)cc2)C=C1"
43.4 µM

// lookup TGI for "N#CC(C#N)=C/C=C/c1c(Cl)cccc1Cl"
3.25 µM

// lookup TGI for OCC(O)CNc1ncnc2ccccc12 (centres undefined)
> 100 µM

// lookup TGI for "CC(C)(Oc1ccc(Cl)cc1)C(=O)N(C(=O)N1CCCCC1)c1ccccc1"
66.1 µM

// lookup TGI for O=c1[nH]c(=O)n(C2CC(O)C(CO)O2)cc1C(F)(C(F)(F)F)C(F)(F)F (centres undefined)
> 100 µM

// lookup TGI for "Cc1cc2nc(C=C(C(F)(F)F)C(F)(F)F)sc2cc1C"
9.93 µM

// lookup TGI for CC(C)(C)c1cc(CCCCCCCC2(CCCCCCCc3cc(C(C)(C)C)cc(C(C)(C)C)c3)OC(COCCOCCCCCC#N)C(COCCOCCCCCC#N)O2)cc(C(C)(C)C)c1 (centres undefined)
> 100 µM

// lookup TGI for "CC(=O)OCCOCNC(=S)N/N=C/c1cc([N+](=O)[O-])ccc1O"
> 100 µM

// lookup TGI for COc1ccc(C2ON(c3ccccc3)CC=C2C)cc1 (centres undefined)
> 100 µM

// lookup TGI for CC1(C)C2CCC1(C)C(OC(=O)/C=C/C(=O)OC1CC3CCC1(C)C3(C)C)C2 (centres undefined)
> 100 µM
